Biological target: wild-type Androgen Receptor (AR-wt) (Homo sapiens, UniProt P10275)
Construct: expressed in transfected cells; host or cells: LNCaP (LNCaP AR (cs))
Sequence (P10275 whole entry): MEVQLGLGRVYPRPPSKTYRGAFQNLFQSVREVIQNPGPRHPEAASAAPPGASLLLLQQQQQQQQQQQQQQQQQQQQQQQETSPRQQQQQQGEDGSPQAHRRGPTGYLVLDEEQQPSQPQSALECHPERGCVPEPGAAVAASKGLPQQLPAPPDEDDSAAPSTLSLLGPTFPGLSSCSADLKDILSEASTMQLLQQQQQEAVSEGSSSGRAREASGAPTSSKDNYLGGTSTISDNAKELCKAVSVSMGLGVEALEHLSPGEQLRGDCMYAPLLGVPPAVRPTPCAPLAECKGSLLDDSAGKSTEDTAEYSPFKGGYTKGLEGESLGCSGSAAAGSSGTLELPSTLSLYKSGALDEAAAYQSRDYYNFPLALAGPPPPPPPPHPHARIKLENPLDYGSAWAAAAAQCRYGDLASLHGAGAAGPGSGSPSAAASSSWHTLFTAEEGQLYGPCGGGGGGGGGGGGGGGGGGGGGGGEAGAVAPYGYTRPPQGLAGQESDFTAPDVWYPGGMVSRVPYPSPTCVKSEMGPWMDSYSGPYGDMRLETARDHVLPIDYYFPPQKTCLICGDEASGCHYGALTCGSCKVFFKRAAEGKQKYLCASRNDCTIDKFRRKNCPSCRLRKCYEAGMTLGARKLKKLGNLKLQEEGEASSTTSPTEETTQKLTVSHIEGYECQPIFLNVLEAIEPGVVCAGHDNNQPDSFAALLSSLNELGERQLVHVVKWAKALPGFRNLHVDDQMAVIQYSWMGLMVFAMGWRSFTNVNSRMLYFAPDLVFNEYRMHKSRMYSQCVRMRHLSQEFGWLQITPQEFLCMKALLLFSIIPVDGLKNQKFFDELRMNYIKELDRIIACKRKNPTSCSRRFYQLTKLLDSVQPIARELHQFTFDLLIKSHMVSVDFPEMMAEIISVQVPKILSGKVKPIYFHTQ
Experiment: LNCaP-AR-wt ANT reporter assay (ARE firefly luciferase, antagonist mode)
Format: cell-based
Details: antagonist mode, 400 pM R-1881 challenge; −Log10(IC50 [Molar]); read-out: LNCaP-AR-wt ANT pIC50 (converted)
Recorded IC50 values for a group of molecules are listed next.
Quick note: give the figure in nM, leave out the unit.

Guide cases for IC50, answers given:
structure_notation=Cc1cc(N2C(=O)C3(CCC3)N(c3ccc(C(=O)Nc4ccnn4C)c(F)c3)C2=S)cnc1C#N measure_name=IC50 obs_value=1020
structure_notation=CNC(=O)c1ccc(N2C(=S)N(c3cnc(C#N)c(C)c3)C(=O)C23CCC3)cc1OC measure_name=IC50 obs_value=1260
structure_notation=N#Cc1ncc(N2C(=O)C3(CCC3)N(c3ccccc3)C2=S)cc1C(F)(F)F measure_name=IC50 obs_value=741
structure_notation=CCN1CCC(Oc2ccc(N3C(=S)N(c4cnc(C#N)c(C)c4)C(=O)C34CCC4)cc2)CC1 measure_name=IC50 obs_value=1260

// next item, IC50 requested
Entry CN1CCN(CCCc2ccc(N3C(=S)N(c4cnc(C#N)c(C(F)(F)F)c4)C(=O)C34CCC4)cc2)CC1 : reported IC50 = ?
501

The measurements presented in this section are drawn from patent US20180008587A1.
